Listing of recorded MIC by entry.
test system: Pseudomonas aeruginosa; experiment: Antibacterial activity against Pseudomonas aeruginosa ATCC 27853 incubated for 18 hrs by CLSI based broth dilution method; assay type: functional
Where a SMILES comes first, the peptide text is derived from it.
readout: MIC

1) CC(C)C[C@H](NC(=O)[C@H](C)NC(=O)[C@@H](NC(=O)[C@H](CCCCN)NC(=O)[C@H](C)NC(=O)[C@H](CCCNC(=N)N)NC(=O)[C@H](CCCCN)NC(=O)[C@H](C)NC(=O)[C@H](C)NC(=O)CN)[C@@H](C)O)C(N)=O (H-GAAKRAKTAL-NH2)    ≥ 512 µM
2) C[C@@H](O)[C@H]1C(=O)N2C(C(=O)O)=C(S[C@@H]3CN[C@H](C(=O)N(C)C)C3)[C@H](C)[C@H]12 [MEROPENEM]    < 1 µM
3) C[C@H](NC(=O)[C@H](C)NC(=O)[C@@H](NC(=O)[C@H](CCCCN)NC(=O)[C@H](C)NC(=O)[C@H](CCCNC(=N)N)NC(=O)[C@H](CCCCN)NC(=O)[C@H](C)NC(=O)[C@H](C)NC(=O)CN)[C@@H](C)O)C(N)=O (H-GAAKRAKTAA-NH2)    ≥ 512 µM

====

tested on: Staphylococcus epidermidis; test: Antibacterial activity against Staphylococcus epidermidis ATCC 12228 incubated for 18 hrs by CLSI based broth dilution method; format: functional
Where a SMILES comes first, the peptide text is derived from it.
Listing of recorded MIC by entry.
readout: MIC (µM)

1) CC(C)C[C@H](NC(=O)[C@H](Cc1c[nH]c2ccccc12)NC(=O)CN)C(=O)N[C@@H](CCCCN)C(=O)N[C@@H](CCCNC(=N)N)C(=O)N[C@@H](Cc1c[nH]c2ccccc12)C(=O)N[C@@H](CCCCN)C(=O)N[C@H](C(=O)N[C@@H](CC(C)C)C(=O)N[C@@H](Cc1c[nH]c2ccccc12)C(N)=O)[C@@H](C)O (H-GWLKRWKTLW-NH2)    32
2) CC(C)C[C@H](NC(=O)CN)C(=O)N[C@@H](CC(C)C)C(=O)N[C@@H](CCCCN)C(=O)N[C@@H](CCCNC(=N)N)C(=O)N[C@@H](CC(C)C)C(=O)N[C@@H](CCCCN)C(=O)N[C@H](C(=O)N[C@@H](CC(C)C)C(=O)N[C@@H](C)C(N)=O)[C@@H](C)O (H-GLLKRLKTLA-NH2)    64
3) CC[C@H](C)[C@H](NC(=O)[C@H](CCCNC(=N)N)NC(=O)[C@H](CCCCN)NC(=O)[C@H](CC(C)C)NC(=O)[C@H](CC(C)C)NC(=O)CN)C(=O)N[C@@H](CCCCN)C(=O)N[C@H](C(=O)N[C@@H](CC(C)C)C(=O)N[C@@H](CC(C)C)C(N)=O)[C@@H](C)O [ANOPLIN] (H-GLLKRIKTLL-NH2)    16
4) CC(C)C[C@H](NC(=O)CN)C(=O)N[C@@H](Cc1c[nH]c2ccccc12)C(=O)N[C@@H](CCCCN)C(=O)N[C@@H](CCCNC(=N)N)C(=O)N[C@@H](Cc1c[nH]c2ccccc12)C(=O)N[C@@H](CCCCN)C(=O)N[C@@H](CCCCN)C(=O)N[C@@H](Cc1ccccc1)C(=O)N[C@@H](Cc1c[nH]c2ccccc12)C(N)=O (H-GLWKRWKKFW-NH2)    16
